Molecular target: T1, human 4-1BB (h4-1BB) on transiently transfected CHO cells (human, UniProt Q07011 24-255)
T1 construct: also called TNFRSF9; CD137
Test: flow cytometry, CHO cells transfected with human 4-1BB, antibody at 0.01 µg/ml
Quick list: percentage of cells with FITC signal per entry.
QUANTITY: percentage of cells with FITC signal (%)

1) 45-7G9 (antibody, V domains shown, mouse antibody purified from ascites) VH: QVQLQQPGSALVRPGASVKLSCKASGYTFSNYWIHWVKQRHGQGLEWIGNIYPASDYTNYDEKFKNKGTLTVDTSSSTAYMHLSSLTSEDSAVYYCSRGYFGSLDYWGQGTSVTVSA VL: DILLTQSPAILSVNPGERVSFSCRASQPIGTGIHWYQQRTNGSPRLLIKSASESISGIPSRFSGSGSGTDFTLTINNVESDDVGDYYCQQSYSWPTTFGGGTKLKIN    0.96
2) 30-5F9 (antibody, V domains shown, mouse antibody purified from ascites) VH: QVQLKESGPGLVAPSQSLSITCTVSGFSLTTYDISWVRQPPGKGLEWLGVIWTGGGTNYNSSFMSRLSISKDNSKNQVFLKMNSLQVDDTAIYYCERVDYWGQGTTLTVSS VL: DVVMTQTPLSLPVSLGDQASISCRSSQSLVHSNGNTYLHWYLQKPGQSPKLLIYKVSNRFSGVPDRFSGSGSGTAFTFKISRVEAEDLGVYFCSQNTHVPWTFGGGTKLEIK    0.72
